# EC (induction ratio 1.5) values compiled below
# System: Nrf2-mediated oxidative stress response pathway (ARE) in AREc32 cells
# Experiment Description: cells
# Test Context: Arec32, 24 h, read-out: Oxidative stress response ECIR1.5 (M)

Query (compound): O=C(Nc1ccccc1-c1ccc(Cl)cc1)c1cccnc1Cl ; field requested: EC (induction ratio 1.5) > 8.32e-05 M

Field entry: C=C(C)[C@H]1Cc2c(ccc3c2O[C@@H]2COc4cc(OC)c(OC)cc4[C@@H]2C3=O)O1 > 6.57e-07 M

Field entry: CC1(C)CNC(=NN=C(/C=C/c2ccc(C(F)(F)F)cc2)/C=C/c2ccc(C(F)(F)F)cc2)NC1 [Hydramethylnon] > 4.04e-05 M

---

# Tested on: AREc32 cells
# Test Context: human, 24 h
# Cytotoxicity Incucyte IC10 values compiled below

Consider the reported Cytotoxicity Incucyte IC10 for these compounds:
{"columns": ["Smiles Str", "Measured Target", "Cytotoxicity Incucyte IC10"],
 "data": [
  ["Cc1ccc(-c2c(Cl)nc(C#N)n2S(=O)(=O)N(C)C)cc1", "AREc32 cells", "> 54.1 µM"],
  ["CON=C(C(=O)OC)c1ccccc1CON=C(C)c1cccc(C(F)(F)F)c1", "AREc32 cells", "> 123 µM"]
]}

Then there is this compound:
Query (compound): O=C(Nc1ccccc1-c1ccc(Cl)cc1)c1cccnc1Cl ; field requested: Cytotoxicity Incucyte IC10 > 83.2 µM

---

# Test system: AREc32 cells
# Experiment Description: Cytotoxicity with ImageXpress high-content imaging, MitoOxTox
# Test Context: logarithm of IC10; AREc32, 24 h exposure, Corning plates
Quantity Kind: Cytotoxicity ImageExpress log(IC10 (M))
Kindly answer with a numeric value in M, unit omitted.

Consider the reported Cytotoxicity ImageExpress log(IC10 (M)) for these compounds:
{"columns": ["Compound", "Unit Tag", "Cytotoxicity ImageExpress log(IC10 (M))"],
 "data": [
  ["COc1cc2c(cc1OC)[C@@H]1C(=O)c3ccc4c(c3O[C@@H]1CO2)C=CC(C)(C)O4", "M", -4.54],
  ["Cc1nc(C(F)(F)F)c(C(=O)Nc2c(Br)cc(OC(F)(F)F)cc2Br)s1 [Thifluzamide]", "M", -4.63]
]}

Query (compound): CC(C)(C)c1ccc(CCOc2ncnc3ccccc23)cc1 ; field requested: Cytotoxicity ImageExpress log(IC10 (M)) -3.96

Field entry: CC1(C)CNC(=NN=C(/C=C/c2ccc(C(F)(F)F)cc2)/C=C/c2ccc(C(F)(F)F)cc2)NC1 [Hydramethylnon] -5.96

---

# Test system: AREc32 cells
# Experiment Description: Cytotoxicity with ImageXpress high-content imaging, MitoOxTox
# Test Context: logarithm of IC10; AREc32, 24 h exposure, Corning plates
# Cytotoxicity ImageExpress log(IC10 (M)) values compiled below
Kindly answer with a numeric value in M, unit omitted.

Query (compound): CCCCCC[C@H]1C(=O)O[C@H](C)[C@H](NC(=O)c2cccc(NC=O)c2O)C(=O)O[C@@H](C)[C@@H]1OC(=O)CC(C)C [Antimycin A] ; field requested: Cytotoxicity ImageExpress log(IC10 (M)) -4.36

Field entry: CCOCCc1ccc(OCCN=c2[nH]cnc(CC)c2Cl)c(C)c1C -4.25

Field entry: COc1ccc2cc3[n+](cc2c1OC)CCc1cc2c(cc1-3)OCO2 -4.14

Ref: paper PMC10993414
